tested on: A2780/C25; assay: Cytotoxicity IC50 in A2780/C25 cell line, 1 hour drug exposure; type: cell-based; conditions: resistance factor = IC50 in A2780/C25 ÷ IC50 in A2780/WT
# note: boundary value 1 maps to NO; C25 Rfact below it maps to YES

Strictly below 1: is that where C25 Rfact of COC(CCC#N)c1ccccc1.COC(CCC#N)c1ccccc1.[Cl][Pt@SP1][Cl] (stereo not drawn) sits? NO

Strictly below 1: is that where C25 Rfact of N#CC1Cc2ccccc21.N#CC1Cc2ccccc21.[Cl][Pt@SP1][Cl] (stereo not drawn) sits? NO

Strictly below 1: is that where C25 Rfact of Cc1cccc(CC#[N+][Pt-2]([Cl])([Cl])[N+]#CCc2cccc(C)c2)c1 sits? NO

Strictly below 1: is that where C25 Rfact of N#CCc1ccccc1C(F)(F)F.N#CCc1ccccc1C(F)(F)F.[Cl][Pt@SP1][Cl] sits? YES

Strictly below 1: is that where C25 Rfact of N#CCc1ccc2c(c1)OCO2.N#CCc1ccc2c(c1)OCO2.[Cl][Pt@SP1][Cl] sits? NO

Strictly below 1: is that where C25 Rfact of Cc1ccccc1CC#[N+][Pt-2]([Cl])([Cl])[N+]#CCc1ccccc1C sits? NO

From: patent US7777060B2
